Origin of values: PubChem BioAssay (NCI)

# Test system: A549 NSCLC
# ASSAY PROTOCOL: NCI tumour cell line growth inhibition, 48 h
REPORTED PROPERTY: TGI

Lab book: TGI of COc1ccc(N2C(=O)C3ON(Cc4ccc(CC(N)=O)cc4)C(c4c5ccccc5c(C)c5ccccc45)C3C2=O)cc1 (centres undefined) noted as > 100 µM

Lab book: TGI of Cc1cc(NC(=O)NCCOc2ccc(N3C(N)=NC(N)=NC3(C)C)cc2Cl)ccc1S(=O)(=O)F noted as > 68.3 µM

Lab book: TGI of CC1=CC(=O)NP(=O)(Oc2ccc(Cl)cc2)N1 (centres undefined) noted as > 100 µM

Lab book: TGI of COC(=O)CNC(=O)C(=O)c1c(O)c(O)c(C(C)C)c2cc(C)c(-c3c(C)cc4c(C(C)C)c(O)c(O)c(C(=O)C(=O)NCC(=O)OC)c4c3O)c(O)c12 noted as 8.01 µM
